Tested on: metastin receptors
assay.text: Measurement of agonist activity by assaying changes in intracellular calcium ion level (FLIPR, Fluo-4 NW)
Type: cell-based, human
condition.details: specific activity of the EC50 of a test compound based on the EC50 of Metastin (45-54), metastin receptor expression CHO cells
*1 amine or outer side, *2 acyl side, *3 side chain or, on linkers, in order; H or OH if unused. Where a SMILES comes first, the peptide text is derived from it. [ ]: non-standard residue; d: D form. Glyψ(E-CHCH)Leu = CC(C)C[C@H](/C=C/CN[*:1])C(=O)[*:2]; X8 = O=C(CSC[C@H](Cc1ccccc1)N[*:1])[*:2]; Arg(Me) = CNC(=N)NCCC[C@H](N)C(=O)O; Dap(CONH2) = NC(=O)NC[C@H](N)C(=O)O; Ala(cPr) = N[C@@H](CC1CC1)C(=O)O; Hyp = O=C(O)[C@@H]1C[C@@H](O)CN1; Cha = N[C@@H](CC1CCCCC1)C(=O)O
quantity.measured: Specific Activity

>>> experimental_result("CC(=O)N[C@H](Cc1ccc(O)cc1)C(=O)N1C[C@H](O)C[C@H]1C(=O)N[C@@H](CC(N)=O)C(=O)N[C@H](C(=O)N[C@@H](CC1CCCCC1)C(=O)NCC(=O)N[C@@H](CC1CC1)C(=O)N[C@@H](CCCNC(=N)N)C(=O)N[C@@H](Cc1c[nH]c2ccccc12)C(N)=O)[C@@H](C)O [Compound No. 940] (Ac-[dY][Hyp]NT[Cha]G[Ala(cPr)]RW-NH2)")
0.5
>>> experimental_result("CNC(=N)NCCC[C@H](NC(=O)[C@H](CC(C)C)NC(=O)CSC[C@H](Cc1ccccc1)NC(=O)[C@@H](NC(=O)[C@H](CC(N)=O)NC(=O)[C@@H]1C[C@@H](O)CN1C(=O)[C@@H](Cc1ccc(O)cc1)NC(C)=O)[C@@H](C)O)C(=O)N[C@@H](Cc1c[nH]c2ccccc12)C(N)=O [Compound No. 944] (Ac-[dY][Hyp]NT[X8]L[Arg(Me)]W-NH2)")
0.7
>>> experimental_result("CNC(=N)NCCC[C@H](NC(=O)[C@@H](/C=C/CNC(=O)[C@H](CC1CCCCC1)NC(=O)[C@@H](NC(=O)[C@H](CNC(N)=O)NC(=O)[C@@H]1C[C@@H](O)CN1C(=O)[C@@H](Cc1ccc(O)cc1)NC(C)=O)[C@@H](C)O)CC(C)C)C(=O)N[C@@H](Cc1c[nH]c2ccccc12)C(N)=O [Compound No. 903] (Ac-[dY][Hyp][Dap(CONH2)]T[Cha][Glyψ(E-CHCH)Leu][Arg(Me)]W-NH2)")
0.4

Ref: patent US7786083B2
